Taken from the supplement of paper PMC12350171.

- System: Salmonella enterica typhimurium
- ASSAY_TEXT: growth AUC normalised to DMSO control (fraction of control); higher = less growth inhibition, active = hit call of the paper;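 active = AUC significantly below DMSO controls by Student t-fit with adjusted P under 0.01; inactive = not significantly reduced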
- MEASUREMENT_PARAMETERS: 20 µM
Counter-ions that a name gives are not always drawn.
# output must be one of 1.0 (active), 0.0 (inactive)

> print(dat)
                                   molecule  label.value
1     CC(=O)OCC(CCn1cnc2cnc(N)nc21)COC(C)=O          0.0
2  CC(=O)OC[C@H]1O[C@@H]([S-])[C@H](OC(C)=O)[C@@H](OC(C)=O)[C@@H]1OC(C)=O.CCP(CC)CC.[Au+]          1.0
3  CN[C@H]1CC[C@@H](c2ccc(Cl)c(Cl)c2)c2ccccc21          0.0

// param item: O=C1CC2(CCCC2)CC(=O)N1CCCCN1CCN(c2ncccn2)CC1 [Buspirone hydrochloride] ; yields the recorded call
0.0

// param item: CCN(CC)CCNc1ccc(CO)c2sc3ccccc3c(=O)c12 ; yields the recorded call
0.0

// param item: O=c1[nH]c(=O)n([C@H]2C[C@H](O)[C@@H](CO)O2)cc1I ; yields the recorded call
1.0

// param item: Oc1ccc(OCc2ccccc2)cc1 ; yields the recorded call
0.0

// param item: CCOc1nc2cccc(C(=O)O)c2n1Cc1ccc(-c2ccccc2-c2nnn[nH]2)cc1 ; yields the recorded call
0.0

// param item: CCN(CC)CCOC(=O)C1(c2ccc([N+](=O)[O-])cc2)CCCC1 [Nitrocaramiphen hydrochloride] ; yields the recorded call
0.0

// param item: CNC(=C[N+](=O)[O-])NCCSCc1ccc(CN(C)C)o1 [Ranitidine hydrochloride] ; yields the recorded call
0.0

// param item: CN(c1nccc(=O)[nH]1)C1CCN(c2nc3ccccc3n2Cc2ccc(F)cc2)CC1 ; yields the recorded call
0.0
